Reported values of normalized growth for individual entries
assay: chemical genetic growth profiling, strain panel (AID 1159580);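 note: tested at 20 µM; growth read once vehicle control cultures reached saturation at 30 °C; 1 = growth at the plate median or of vehicle wells; lower values mean less growth of the strain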; conditions: S. cerevisiae deletion strains, growth OD, locus YNL197C, strain WHI3, active compounds read low
The whole screen tested about 5,500 compounds, of which about 2,000 (36%) were called active. Roughly 18% stayed inconclusive and do not appear here. Some of the results follow.
Enter a number only.

Use these answered entries as a reference point.
compound: NCCc1c[nH]c2ccc(C(N)=O)cc12
reported-measurement: 1.02

compound: C[N+]1(C)C2CC(OC(=O)[C@H](CO)c3ccccc3)CC1C1OC12 (stereo partly drawn)
reported-measurement: 0.988

The recorded normalized growth for C[N+]1(C)C2CC(OC(=O)C(CO)c3ccccc3)CC1C1OC12 (stereo not drawn) is 0.982

Data credit: PubChem BioAssay AID1159580
